The entries below come with measured IC50 values attached.
Target: SET7/9 (Homo sapiens)
Sequence (Q8WTS6 whole entry, species assumed): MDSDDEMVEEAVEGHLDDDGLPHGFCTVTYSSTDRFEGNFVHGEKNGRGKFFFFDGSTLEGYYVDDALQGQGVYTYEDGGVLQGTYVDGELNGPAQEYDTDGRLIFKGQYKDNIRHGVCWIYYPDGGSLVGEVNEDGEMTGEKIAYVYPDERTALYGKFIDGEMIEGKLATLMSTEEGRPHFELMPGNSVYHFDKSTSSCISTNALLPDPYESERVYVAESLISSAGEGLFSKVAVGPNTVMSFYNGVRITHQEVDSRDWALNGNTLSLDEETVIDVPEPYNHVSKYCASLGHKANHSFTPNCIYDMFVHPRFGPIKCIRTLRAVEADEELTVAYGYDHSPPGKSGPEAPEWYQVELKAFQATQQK
Assay: HKMT-inhibitor (HMT) assay, SET7/9
Conditions: recombinant HKMT, [3H]SAM, histone octamers or oligonucleosomes, average of duplicate

Nc1cc(S(=O)(=O)O)cc2cc(S(=O)(=O)O)cc(O)c12; > 1380 µM

Attention now shifts to the item below.
Q: Request the reported IC50 associated with `Cc1cc(O)c(C(C)C)cc1C1(c2cc(C(C)C)c(O)cc2C)OC(=O)c2ccccc21`
Result: > 1450 µM

====

Listing of recorded pIC50 by entry.
Molecular target: EZH2 (Homo sapiens, UniProt Q15910)
Construct: made in house
Sequence (Q15910 whole entry, species assumed): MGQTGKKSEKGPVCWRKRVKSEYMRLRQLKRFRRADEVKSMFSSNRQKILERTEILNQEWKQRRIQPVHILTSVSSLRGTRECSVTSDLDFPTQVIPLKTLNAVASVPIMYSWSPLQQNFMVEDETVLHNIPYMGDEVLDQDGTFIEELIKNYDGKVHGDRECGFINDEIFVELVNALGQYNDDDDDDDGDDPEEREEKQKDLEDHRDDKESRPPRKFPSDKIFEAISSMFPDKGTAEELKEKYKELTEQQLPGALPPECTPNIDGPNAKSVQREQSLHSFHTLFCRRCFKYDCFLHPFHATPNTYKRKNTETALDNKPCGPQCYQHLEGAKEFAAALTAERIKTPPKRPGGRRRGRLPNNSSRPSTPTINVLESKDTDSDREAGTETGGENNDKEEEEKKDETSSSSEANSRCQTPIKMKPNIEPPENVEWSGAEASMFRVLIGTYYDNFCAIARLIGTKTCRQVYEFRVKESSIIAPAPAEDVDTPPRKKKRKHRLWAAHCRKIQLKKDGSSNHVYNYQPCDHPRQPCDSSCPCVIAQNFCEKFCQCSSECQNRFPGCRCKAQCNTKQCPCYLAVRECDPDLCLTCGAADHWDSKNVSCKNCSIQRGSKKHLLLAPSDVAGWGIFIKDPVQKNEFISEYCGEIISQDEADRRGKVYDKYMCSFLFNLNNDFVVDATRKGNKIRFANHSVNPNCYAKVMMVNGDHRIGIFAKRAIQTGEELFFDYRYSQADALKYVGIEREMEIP
Sequence (O75530 whole entry partner, species assumed): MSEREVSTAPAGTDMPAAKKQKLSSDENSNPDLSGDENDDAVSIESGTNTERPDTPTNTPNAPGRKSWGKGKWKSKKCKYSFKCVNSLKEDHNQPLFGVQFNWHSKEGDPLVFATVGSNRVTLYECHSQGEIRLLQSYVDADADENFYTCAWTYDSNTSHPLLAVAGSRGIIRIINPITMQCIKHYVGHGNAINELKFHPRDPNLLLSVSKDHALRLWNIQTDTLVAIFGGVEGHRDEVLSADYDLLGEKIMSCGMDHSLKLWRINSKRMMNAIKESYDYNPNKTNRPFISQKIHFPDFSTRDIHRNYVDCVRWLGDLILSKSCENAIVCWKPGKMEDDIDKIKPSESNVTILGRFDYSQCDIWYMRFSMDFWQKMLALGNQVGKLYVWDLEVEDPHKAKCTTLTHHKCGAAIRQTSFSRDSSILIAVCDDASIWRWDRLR
Sequence (Q15022 whole entry partner, species assumed): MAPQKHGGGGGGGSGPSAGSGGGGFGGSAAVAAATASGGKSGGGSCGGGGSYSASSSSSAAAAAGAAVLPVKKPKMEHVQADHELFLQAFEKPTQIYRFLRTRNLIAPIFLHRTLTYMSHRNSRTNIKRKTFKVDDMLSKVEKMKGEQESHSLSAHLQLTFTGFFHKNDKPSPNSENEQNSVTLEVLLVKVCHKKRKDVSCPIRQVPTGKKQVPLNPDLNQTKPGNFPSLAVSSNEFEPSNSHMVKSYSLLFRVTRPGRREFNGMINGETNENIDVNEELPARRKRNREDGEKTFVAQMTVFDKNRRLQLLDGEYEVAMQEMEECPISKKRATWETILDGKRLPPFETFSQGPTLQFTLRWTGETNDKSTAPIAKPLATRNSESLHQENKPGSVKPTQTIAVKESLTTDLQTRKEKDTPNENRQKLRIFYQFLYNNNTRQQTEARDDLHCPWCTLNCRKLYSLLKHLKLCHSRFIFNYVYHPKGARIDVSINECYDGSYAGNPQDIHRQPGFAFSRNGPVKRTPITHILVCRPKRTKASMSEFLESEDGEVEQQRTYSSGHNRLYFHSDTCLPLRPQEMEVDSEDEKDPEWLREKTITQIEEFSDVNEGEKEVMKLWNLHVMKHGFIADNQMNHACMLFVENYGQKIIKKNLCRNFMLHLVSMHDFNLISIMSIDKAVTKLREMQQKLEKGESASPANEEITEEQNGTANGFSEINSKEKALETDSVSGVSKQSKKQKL
Experiment: HKMT-inhibitor (HMT) assay, EZH2
Format: biochemical, Mammalian
Details: first of two values printed as x/y; meaning of the pair not explained; read-out: IC50 EZH2 (first value of cell)
Friendly reminder that pIC50 comes from taking -log10 of the concentration in mol/L.

Cc1cc(O)c(C(C)C)cc1C1(c2cc(C(C)C)c(O)cc2C)OC(=O)c2ccccc21; 4.60

From here, focus on the item given below.
Q: # get_value(readout='pIC50', item= `Nc1cc(S(=O)(=O)O)cc2cc(S(=O)(=O)O)cc(O)c12` )
Result: 5.52

Cited source for all entries: patent US20090306201A1
